- assayed.system: SIK2 (Homo sapiens (Human))
- Sequence (Q9H0K1 whole entry, species assumed): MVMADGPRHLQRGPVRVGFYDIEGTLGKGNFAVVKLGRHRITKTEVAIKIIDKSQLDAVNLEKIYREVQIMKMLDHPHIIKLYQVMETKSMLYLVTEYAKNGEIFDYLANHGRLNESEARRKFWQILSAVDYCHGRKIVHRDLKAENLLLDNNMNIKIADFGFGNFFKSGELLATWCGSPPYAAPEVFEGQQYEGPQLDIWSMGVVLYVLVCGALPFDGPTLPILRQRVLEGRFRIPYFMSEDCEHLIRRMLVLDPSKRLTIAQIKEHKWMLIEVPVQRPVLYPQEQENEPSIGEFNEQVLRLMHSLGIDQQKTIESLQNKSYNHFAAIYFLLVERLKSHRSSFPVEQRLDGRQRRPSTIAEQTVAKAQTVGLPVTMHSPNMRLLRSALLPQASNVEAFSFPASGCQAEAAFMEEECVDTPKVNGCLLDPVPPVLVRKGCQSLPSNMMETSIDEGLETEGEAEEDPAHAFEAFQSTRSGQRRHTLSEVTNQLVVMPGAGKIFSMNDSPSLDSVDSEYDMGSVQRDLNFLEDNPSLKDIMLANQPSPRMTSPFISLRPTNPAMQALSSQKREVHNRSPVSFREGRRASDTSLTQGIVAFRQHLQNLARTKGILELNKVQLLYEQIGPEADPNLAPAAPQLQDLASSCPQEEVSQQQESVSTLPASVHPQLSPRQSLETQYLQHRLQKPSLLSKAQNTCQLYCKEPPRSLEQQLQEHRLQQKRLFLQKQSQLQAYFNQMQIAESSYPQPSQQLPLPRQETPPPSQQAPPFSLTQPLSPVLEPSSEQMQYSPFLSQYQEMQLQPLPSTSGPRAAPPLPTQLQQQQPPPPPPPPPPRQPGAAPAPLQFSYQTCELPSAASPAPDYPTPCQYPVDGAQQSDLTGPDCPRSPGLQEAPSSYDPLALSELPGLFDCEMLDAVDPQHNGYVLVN
- run.description: SIK2 Enzymatic Assay Version 2 (High ATP)
- Type: biochemical
- reported.conditions: 3 mM ATP and 200 μM HDAC5tide final, ADP-Glo Max luminescence
pIC50: −log10 of the molar value.
value.kind: pIC50

These recorded examples may help you get a feel for the data.
compound: Cn1ncc(O[C@@H]2CNC[C@H]2O)c1-c1ccn2nc(NC(=O)C3CC3)cc2c1 (single isomer, unassigned) [Example 414]
pIC50: 7.01
//
compound: C[C@@H]1CN(C)[C@H]1COc1cnn(C)c1-c1ccn2nc(NC(=O)C3CC3)cc2c1 [Example 24]
pIC50: 7.46
//
compound: CO[C@@H]1CN(C)C[C@H]1COc1cnn(C)c1-c1ccn2nc(NC(=O)C3CC3)cc2c1 [Example 423]
pIC50: 6.82
//
compound: CO[C@H]1CNC[C@H]1Oc1noc(C)c1-c1ccn2nc(Nc3cc(C)nc(C)n3)cc2c1 [Example 94]
pIC50: 7.99

a: CN1CC[C@@H]1COc1cnn(C)c1-c1ccn2nc(Nc3ccc4cnccc4n3)cc2c1 [Example 125]
b: CCCn1ncc(OC[C@@H]2CCN(C)C2)c1-c1ccn2nc(NC(=O)C3CC3)cc2c1 [Example 490]
c: COC1CNC[C@@H]1Oc1noc(C)c1-c1ccn2nc(NC(=O)C3CC3)cc2c1 (mixture of isomers) [Example 200]
// query # rank by pIC50, ascending (min first) Form entry: labels listed in requested order.
// result b, c, a
